Test system: SK-CO-1 cells
testDescription: SK-CO-1 CTG proliferation assay (120 h) (CRC, G12V)
Assay type: cell-based
appliedConditions: Homo sapiens
pIC50: −log10 of the molar value.
endpointName: pIC50

>>> readoutnumber("C[C@H](Oc1nc(-c2onc3c2CCC[C@@]32CCCc3sc(N)c(C#N)c32)nc2c1COC[C@]21CCOC1)[C@@H]1CCCN1C [I-54]")
8.52
>>> readoutnumber("C[C@H](Oc1nc(-c2onc3c2CCC[C@@]32CCCc3sc(N)c(C#N)c32)nc2c1n(C)c(=O)n2[C@@H]1CC2CCC1O2)[C@@H]1CCCN1C (stereo partly drawn) [I-18]")
6.44
>>> readoutnumber("C[C@H](Oc1nc(-c2noc3c2CCC[C@@]32CCCc3sc(N)c(C#N)c32)nc2c1CN(C1COC1)C[C@]21CCOC1)[C@@H]1CC[C@H](C)N1C [II-17]")
8.30
>>> readoutnumber("C[C@H](Oc1nc(-c2onc3c2CCC[C@@]32CCCc3sc(N)c(C#N)c32)nc2c1n(C)c(=O)n2[C@H]1CCOC1)[C@@H]1CCCN1C [I-9]")
7.12
>>> readoutnumber("C[C@@H]1COC[C@H](n2c(=O)n(C)c3c(O[C@@H](C)[C@@H]4CCCN4C)nc(-c4onc5c4CCC[C@@]54CCCc5sc(N)c(C#N)c54)nc32)C1 [I-44]")
8.30
>>> readoutnumber("CO[C@@H]1C[C@@H]([C@H](C)Oc2nc(-c3noc4c3CCC[C@@]43CCCc4sc(N)c(C#N)c43)nc3c2COC[C@]32CCOC2)N(C)C1 [II-11]")
8.40
